Measured TGI, listed per entry for reference.
Test system: SNB-75 CNS
Assay: NCI tumour cell line growth inhibition, 48 h

These solved cases illustrate the format of a correct answer.
NC(=O)NNCc1c(-c2ccccc2)no[n+]1[O-] = > 100 µM
CCN(CC)CCC(CNc1ccnc2cc(Cl)ccc12)c1ccccc1 (stereo unspecified) = 9.82 µM
CCCCNC(=NCc1ccccc1)NC#N = > 100 µM
COc1cccc(C=C2N=C(c3ccccc3)N(n3c(-c4ccccc4)nc4ccccc4c3=O)C2=O)c1 = > 100 µM
O=C(/C=C/C(Cl)(Cl)Cl)Nc1ccc(Cl)cc1 = 11.1 µM
Clc1ccc(CCc2ccncn2)c(Cl)c1 = > 100 µM
CN(C)C=NC1CCC(C(C)(C)C)CC1 (stereo unspecified) = 34.9 µM
O=C(Nc1ccccc1C(F)(F)F)c1ccc(NC2=C(Cl)C(=O)N(Cc3ccccc3)C2=O)cc1 = > 100 µM
CCN(CC)CC(=O)NC1c2ccccc2Oc2c(C)cccc21 (stereo unspecified) = > 100 µM
COc1ccc(Cl)cc1Nc1nc(C(F)(F)F)ccc1C(=O)N/N=C/c1cccnc1 = 49.7 µM

I would be grateful if you could share the reported TGI for "Nc1cc(S(=O)(=O)O)cc2ccc(S(=O)(=O)O)cc12" . > 100 µM

* * *

Tested on: K-562 leukemia
Experiment: NCI tumour cell line growth inhibition, 48 h
assay.readout: TGI

These solved cases illustrate the format of a correct answer.
COC1OC(CBr)C(OC(=O)c2ccccc2)C(OS(=O)(=O)c2ccc(C)cc2)C1Br (centres undefined) = > 100 µM
CC1=C(C(=O)NCc2ccccc2)C(c2ccccc2C)C(C(=O)NCc2ccccc2)=C(C)N1 = > 100 µM
Clc1ccc(OCc2nnc3n2N=C(c2ccc(Br)cc2)CS3)cc1 = > 100 µM
CS(C)(=O)=Nn1c(=O)n2n(c1=O)C1c3ccccc3C2c2ccccc21 = > 100 µM
C/C(=N/O)c1ccc2c(c1)/C(=N/O)c1ccccc1-2 = 32.4 µM
COc1cccc2nc3ccccc3nc12 = > 100 µM

I would be grateful if you could share the reported TGI for COc1cc(COC(=O)N2CC=CC2C(=O)O)c([N+](=O)[O-])cc1OC (centres undefined) . > 100 µM

Likewise for O=C(CC(c1ccccc1)C1C(=O)NC(=S)NC1=O)c1ccc([N+](=O)[O-])cc1 (centres undefined) ? > 100 µM

Likewise for COc1cc(C2c3cc4c(cc3OC(NCCc3ccccc3)C2C)OCO4)cc(OC)c1OC (centres undefined) ? 16.9 µM

* * *

Test system: SF-295 CNS
Test: NCI tumour cell line growth inhibition, 48 h
assay.readout: TGI (µM)
Enter your answer as a number in µM; do not include the unit.

CCOc1ccc(OCC)c([P+](c2ccccc2)(c2ccccc2)c2ccccc2)c1 = 6.38
CCN(CC)CCCNc1ccc([N+](=O)[O-])c2nc3ccc(OC)cc3c(N)c12 = 3.64

Please find the next compound below.
I would be grateful if you could share the reported TGI for "N#Cc1ccccc1C#C/C=C\C#CC#C/C=C\C#Cc1ccccc1C#N" . 53

* * *

Tested on: UO-31 renal
Experiment: NCI tumour cell line growth inhibition, 48 h; in the data active = GI50 below about 0.43 µM; inactive = the rest
Your answer must be one of the following: Y for active, N for inactive

Worked examples, 5 compounds total:
O=C1c2ccccc2C(=O)c2c1ccc1c(=O)n(-c3ccccc3C(F)(F)F)nnc21 = N
O=C(Cc1csc2nc(-c3ccc(Cl)cc3)cn12)N/N=C/c1ccccc1O = N
C[C@@H](NC(=O)c1ncnc(N)c1Cl)c1ncc(C(=O)Nc2cc(C(F)(F)F)c(Cl)cn2)s1 = N
NC1=NC(=O)/C(=C/c2ccc3ncccc3c2)S1 = N
CCN(CC)CCN1C(=O)C2C3C(=O)CC(C)(CC3C)C2C1=O (stereo not drawn) = N

Recorded call for "COc1ccc(-c2[nH]nc(N)c2-c2cc(OC)c3c(c2)OCO3)cc1" ? N

Likewise for "C/C(=N/O)c1ccc2c(c1)/C(=N/O)c1ccccc1-2" ? N

Likewise for NC(Cc1c[nH]c2ccc(F)cc12)C(=O)O (stereo not drawn) ? N

* * *

Test system: OVCAR-3 ovarian
Test: NCI tumour cell line growth inhibition, 48 h; in the data active = GI50 below about 0.43 µM; inactive = the rest
Your answer must be one of the following: Yes = active, No = inactive

Worked examples, 3 molecules total:
O=C1c2ccccc2C(=O)c2c1ccc1c(=O)n(-c3ccccc3C(F)(F)F)nnc21 = Yes
N#Cc1ccccc1C#C/C=C\C#CC#C/C=C\C#Cc1ccccc1C#N = No
NC1=NC(=O)/C(=C/c2ccc3ncccc3c2)S1 = No

Moving on to another molecule below.
Recorded call for "COc1ccc(-c2nn(-c3ccc(NC(=O)c4cc(Cl)cc(Cl)c4)cc3)cc2-c2ccncc2)cc1Cl" ? No

* * *

Tested on: SK-MEL-28 melanoma
Assay: NCI tumour cell line growth inhibition, 48 h; in the data active = GI50 below about 0.43 µM; inactive = the rest
Your answer must be one of the following: active, inactive

Worked examples, 2 molecules total:
COc1cc(/C=C/C(=O)/C=C/c2cc3ccc(Cl)cc3n(Cc3ccccc3)c2=O)ccc1O = inactive
Cc1ccc(-c2nc(N3CCNCC3)c3oc(-c4ccccc4)nc3n2)cc1 = inactive

Recorded call for COc1ccc(C(=O)O[C@H]2[C@H](O[C@H]3[C@@H](O)COC(O[C@H]4C[C@H]5[C@@H]6CC=C7C[C@@H](O)CC[C@]7(C)[C@H]6CC[C@]5(C)[C@H]4[C@H](C)C(=O)CCC(C)C)[C@@H]3OC(C)=O)OC[C@@H](O)[C@@H]2O)c(C)c1 (some centres undefined) ? active

Likewise for "Cc1nc(-c2cnc(NC(C)C)n(C)c2=O)ccc1Oc1ccnc(-c2cnn(C)c2)c1" ? inactive

* * *

Measured GI50, listed per entry for reference.
Tested on: MDA-MB-231 breast
Test: NCI tumour cell line growth inhibition, 48 h

COc1ccc2nc3cc([N+](=O)[O-])ccc3c(NNc3ccccc3)c2c1 = 5.69 µM

What GI50 appears in the records for this compound with MDA-MB-231 breast? "NC(=O)CC1(O)C=C(Br)C(=O)C(Br)=C1" 6.85 µM

Likewise for "Clc1ccc2ncc(-c3cccc(NC4CNC4)n3)n2c1" ? 6.48 µM

Likewise for "COc1cccc(C2=C(c3cn(C)c4cc(F)ccc34)C(=O)NC2=O)c1" ? > 25 µM

Likewise for CCCCCCCCCC(CCCC(O)CC(=O)O)OC1OC(COC2OC(C)C(OC(C)=O)C(O)C2O)C(O)C(O)C1OC1OC(CO)C(O)C(O)C1OC1OC(C)C(OC(=O)CC(C)C)C(O)C1O (stereo not given) ? > 35 µM

* * *

System: COLO 205 colon
Assay: NCI tumour cell line growth inhibition, 48 h
assay.readout: TGI

I would be grateful if you could share the reported TGI for COc1cc(C(c2cccc3ccccc23)N2C(=O)CCC2C(=O)O)cc(OC)c1OC (stereo not drawn) . > 100 µM

Likewise for "N#Cc1ncn(CCO)c1N" ? > 100 µM

Likewise for "O=c1ccc(=O)n(-c2ccccc2)[nH]1" ? > 100 µM

* * *

Test system: SNB-19 CNS
Assay: NCI tumour cell line growth inhibition, 48 h
assay.readout: GI50

These solved cases illustrate the format of a correct answer.
CCCCCC[C@@H](C)Nc1nc2ccccc2c2occc12 = 17.7 µM
Cc1ccc(-c2nc(N3CCNCC3)c3oc(-c4ccccc4)nc3n2)cc1 = 1.85 µM

I would be grateful if you could share the reported GI50 for "ClCc1ccc(Cn2cnc3c(Cl)ncnc32)cc1" . 16.9 µM

Likewise for "COc1cc(/C=C/C(=O)/C=C/c2cc3ccc(Cl)cc3n(Cc3ccccc3)c2=O)ccc1O" ? 1.73 µM

Likewise for "COc1ccc(-c2[nH]nc(N)c2-c2cc(OC)c3c(c2)OCO3)cc1" ? 5.23 µM

Likewise for "COc1cccc(C2=C(c3cn(C)c4cc(F)ccc34)C(=O)NC2=O)c1" ? > 25 µM

Likewise for "O=C(Nc1ccc(-n2ccc3c(NC(=O)c4ccccc4)nccc32)cc1)Nc1cccc(C(F)(F)F)c1" ? 11.1 µM

Likewise for "Nc1nnnc2nc[nH]c12" ? 6.17 µM

* * *

System: HOP-62 NSCLC
Assay: NCI tumour cell line growth inhibition, 48 h
assay.readout: log10 TGI (log10 of the value in µM)
In plain terms, each number is the log10 of measured TGI in µM.

COc1ccc2nc(-c3ccccc3)cc(Nc3cccc(C(C)=O)c3)c2c1 = 0.69
O=C1c2cccnc2C(=O)c2c1c(C(=O)NCCn1ccnc1)c1ccccn21 = 1.05
Cc1ccc(/C=C/c2c(C(=O)/C=C/c3ccc(Cl)cc3)c(C)nc3ccccc23)cc1 = 0.67
COc1cc(C2c3cc4c(cc3[C@@H](Nc3ccc(Oc5ccccc5)cc3)C3COC(=O)[C@H]23)OCO4)cc(OC)c1O (some centres not stated) = 0.62

Please find the next molecule below.
I would be grateful if you could share the reported log10 TGI for "CC1=C(C(=O)NCc2ccccc2)C(c2ccccc2C)C(C(=O)NCc2ccccc2)=C(C)N1" . 1.84
